All figures here come from the supplement of paper PMC7877785.

assay: self-splicing fitness, log relative to wild type (ln ratio); higher = more splicing; Tetrahymena group I intron in knt gene, E. coli kanamycin selection, DiMSum; sequences stand for … in CUCUCU…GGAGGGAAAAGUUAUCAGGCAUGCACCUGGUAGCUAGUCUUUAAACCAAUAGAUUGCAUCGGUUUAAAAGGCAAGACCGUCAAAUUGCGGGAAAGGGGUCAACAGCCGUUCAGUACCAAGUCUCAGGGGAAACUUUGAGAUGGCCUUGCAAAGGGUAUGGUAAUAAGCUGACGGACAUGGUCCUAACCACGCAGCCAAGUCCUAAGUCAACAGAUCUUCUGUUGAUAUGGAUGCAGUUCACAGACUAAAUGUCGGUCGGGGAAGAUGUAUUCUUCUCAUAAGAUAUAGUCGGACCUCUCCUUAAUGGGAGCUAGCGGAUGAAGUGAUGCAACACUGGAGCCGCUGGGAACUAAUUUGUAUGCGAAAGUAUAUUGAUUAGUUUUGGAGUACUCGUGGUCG; conditions: 37 °C;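 further: selection with 25 µg/mL kanamycin versus none on LB agar overnight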
observationType: self-splicing fitness (ln)
Reply with just the number.

Req: Provide measured self-splicing fitness (ln) value, entry: ACCCAGCAAUAUUACGGGAA
Resp: -0.102

Req: Provide measured self-splicing fitness (ln) value, entry: UGGCAGCAAUAUUACGUCAA
Resp: -0.518

Req: Provide measured self-splicing fitness (ln) value, entry: CGGUAGCAAUAUUACGGGCA
Resp: -0.528

Req: Provide measured self-splicing fitness (ln) value, entry: UGAUAGCAAUAUUACGAUAU
Resp: -2.12

Req: Provide measured self-splicing fitness (ln) value, entry: AUUCAGCAAUAUUACGGCUC
Resp: -0.0849

Req: Provide measured self-splicing fitness (ln) value, entry: CUAAAGCAAUAUUACGCGUG
Resp: 0.243
